Molecular target: T1, monkey CD22 protein (ACROBiosystems, catalog number SI2-R52Ha) (monkey, UniProt F6W485 20-688)
T1 construct: commercial protein; also called monkey CD22-ECD; monkey CD22-ECD-His
T1 sequence: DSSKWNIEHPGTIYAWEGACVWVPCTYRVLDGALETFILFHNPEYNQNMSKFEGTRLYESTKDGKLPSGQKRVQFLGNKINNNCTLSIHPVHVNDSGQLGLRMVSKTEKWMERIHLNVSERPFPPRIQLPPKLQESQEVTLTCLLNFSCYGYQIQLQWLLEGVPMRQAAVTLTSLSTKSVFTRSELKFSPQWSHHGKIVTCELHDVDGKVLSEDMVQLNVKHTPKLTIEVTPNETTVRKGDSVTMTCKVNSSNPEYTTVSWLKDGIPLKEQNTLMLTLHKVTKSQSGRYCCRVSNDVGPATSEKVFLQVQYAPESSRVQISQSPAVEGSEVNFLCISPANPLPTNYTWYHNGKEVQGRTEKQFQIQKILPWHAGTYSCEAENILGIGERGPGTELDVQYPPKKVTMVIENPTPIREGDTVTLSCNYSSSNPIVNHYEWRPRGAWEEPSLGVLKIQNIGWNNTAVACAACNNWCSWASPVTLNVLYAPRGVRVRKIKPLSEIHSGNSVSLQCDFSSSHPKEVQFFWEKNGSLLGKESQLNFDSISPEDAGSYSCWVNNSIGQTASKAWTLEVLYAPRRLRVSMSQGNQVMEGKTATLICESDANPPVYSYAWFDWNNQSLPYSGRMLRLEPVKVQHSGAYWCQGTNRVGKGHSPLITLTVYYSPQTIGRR
Assay: ELISA, coated monkey CD22 protein, antibody 10 nM
Below is a list of entries, each paired with its recorded OD450 value.
property_measured: OD450 (OD450)

F1.120.15 (antibody, human IgG1, kappa, V domains shown, human-murine chimeric IgG1 kappa) VH: QVQLQQSGPELVKPGASVKISCKASGNAFSNSWMNWVKQRPGKGLEWIGRVYSEDGDTQYNGKFRDKATLTADRSTSTAYMQLSSLTSEDSAVYFCARWLIYYGTYGAMDYWGQGTSVTVSS VL: DIQMTQTTSSLSASLGDRVTISCRASQDINNYLNWYHQKPDGTVKLLIYFTSRPYSGVPSRFSGSGSGTDYSLTISNLEQEDIATYFCQQGNTLPWTFGGGTKLEIKR ... 1.9
F2.104.10 (antibody, human IgG1, lambda, V domains shown, human-murine chimeric IgG1 lambda) VH: EVQLVESGGGFVKPGGSLKLSCAASGFTFSDYGMNWFRQAPEKGLEWVAYISRGSHTIYYADTVKGRFTISRDNAENTLFLQMTSLRSNDTAMYYCVRMAGYYAMDYWGQGTSLTVSS VL: QLVLTQSSSASFSLGASAKLTCTLSSQHSSYIIEWYQQQPLKPPKYVMEVKKDGSHSTGDGIPDRFSGSSSGADRYLSISNIQSEDEAIYICGVGDTIKEQFVYVFGGGTKVTVLG ... 0.07
F1.216.2 (antibody, human IgG1, kappa, V domains shown, human-murine chimeric IgG1 kappa) VH: QVQLQQSGPEVVRPGASVKISCKASGYAFSSSWMNWMKQRPGKALEWIGRIYPGDGDTNYSGEFKVKATLTADKSSSTAYMQLSSLTSEDSAVYFCAREGSYYSNPWYFDYWGQGTTLTVSS VL: DVLVTQTPLSLPVSLGDQASISCRSSQSIVQSNGDTYLEWYLQKPGQSPKLLIYKVSNRFSGVPDRFSGSGSGTDFTLKISRVEAEDLGVYYCFQGSHVPFTFGSGTKLEIKR ... 2.15
F1.200.11 (antibody, human IgG1, kappa, V domains shown, human-murine chimeric IgG1 kappa) VH: QNQLVQSGPELKKPGETVKISCKASGYTFTTAGMQWVQKMPGKGFKWIGWINTLSGEPKYAEDFKGRFAFSLETSATTAYLQISNLKNEDTATYFCARAYYSNLYWYFDVWGTGTTVTVSS VL: DIVMTQSQKFMSTTVGDRVTITCKASQNVVTAVAWYQQKPGQSPKVLIYSASNRYSGVPDRFTGSGSGTDFTLTISNMHSEDLANYFCHQYSSYPFTFGSGTKLEIKR ... 1.23
F1.192.1 (antibody, human IgG1, kappa, V domains shown, human-murine chimeric IgG1 kappa) VH: AVQLQQSGVELVRPGASVKLSCTGSDFNIKEDYIHWVKQRPEQGLEWIGWIDPENGDTEYASKFQGKATITADTSSNTAYLQLSSLTSEDTAVYYCATYGSLDYWGQGTTLTVSS VL: DIKMTQSPSSMYAFLGERVTITCKASQGINSFLTWFQQKPGKSPKTLIYRANRLVDGVPSRFSGSGSGQDYSLTISSLEYEDVGIYYCLQYDEFPRTFGGGTKLEIKR ... 0.84
